# measured.target: T1, Cynomolgus macaques TSLP recombinant protein (Cynomolgus macaques, UniProt Q969D9 29-159 (human entry), limits assumed, biotinylated in the blocking assays (sites not given))
# T1 construct: also called cyTSLP; biotinylated Cynomolgus macaques TSLP protein
# T1 chain: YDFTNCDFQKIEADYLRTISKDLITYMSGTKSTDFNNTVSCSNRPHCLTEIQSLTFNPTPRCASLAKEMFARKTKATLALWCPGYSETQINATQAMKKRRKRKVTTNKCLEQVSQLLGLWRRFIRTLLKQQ
# method: ELISA on coated cynomolgus TSLP;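 further: Read-out was TMB colorimetric signal measured as absorbance at 450 nm after 10 min development at 37 °C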
Kindly apply the following: y if EC50 is less than 3 nM, n in every other case.

Below are worked cases with known answers.
binder: Ab2 (antibody, V domains shown, Humanized; also called h39G5VHv2/h39G5VKv1) VH: QVQLVQSGAEVKKPGSSVKVSCKASGYSFISYWIHWVRQAPGQGLEWMGIIDPSDSDTSLNQKFQGRVTITADESTSTAYMELSSLRSEDTAVYYCARSLDGYYDYWGQGTLVTVSS VL: DIQMTQSPSSLSASVGDRVTITCRASENIYSYLAWYQQKPGKAPKLLIYNARTLPEGVPSRFSGSGSGTDFTLTISSLQPEDFATYYCQHHYTTPWTFGQGTKVEIK
assigned.label: y
//
binder: Ab19 (antibody, V domains shown, Humanized; also called h71G4VHv1/h71G4VKv1) VH: QVQLVQSGAEVKKPGSSVKVSCKASGYTFTDYWMHWVRQAPGQGLEWMGTIDNSDSDTTYNPSFQGHVTISADKSISTAYLQWSSLKASDTAMYYCARSVDGYLDYWGQGTLVTVSS VL: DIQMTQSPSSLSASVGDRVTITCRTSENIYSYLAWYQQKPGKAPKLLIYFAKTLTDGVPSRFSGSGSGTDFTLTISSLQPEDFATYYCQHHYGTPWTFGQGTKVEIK
assigned.label: y
//
binder: Ab13 (antibody, V domains shown, Humanized; also called h39G5VHv13/h39G5VKv1) VH: EVQLVQSGAEVKKPGESLKISCKASGYTFTDYWMHWVRQMPGKGLEWMGIIDPSDSDTSLNQSFQGHVTISADKSISTAYLQWSSLKASDTAMYYCARSLDGYYDYWGQGTLVTVSS VL: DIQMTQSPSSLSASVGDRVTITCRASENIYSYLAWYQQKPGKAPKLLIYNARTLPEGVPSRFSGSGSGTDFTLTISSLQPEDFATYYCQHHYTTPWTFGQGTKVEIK
assigned.label: n
//
binder: Ab4 (antibody, V domains shown, Humanized; also called h39G5VHv4/h39G5VKv1) VH: EVQLVQSGAEVKKPGESLRISCKASGYSFISYWIHWVRQMPGKGLEWMGIIDPSDSDTSLNQSFQGHVTISADKSISTAYLQWSSLKASDTAMYYCARSLDGYYDYWGQGTLVTVSS VL: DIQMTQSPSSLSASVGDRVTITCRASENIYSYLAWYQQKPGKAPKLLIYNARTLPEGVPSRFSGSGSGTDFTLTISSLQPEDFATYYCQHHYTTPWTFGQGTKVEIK
assigned.label: n

Ask | In the record for Ab1 (antibody, V domains shown, Humanized; also called h39G5VHv1/h39G5VKv1) VH: QVQLVQSGAEVKKPGSSVKVSCKASGYSFISYWIHWVRQAPGQGLEWMGIIDPSDSDTSLNQKFQGRVTLTVDKSSTTAYMELSSLRSEDTAVYYCARSLDGYYDYWGQGTLVTVSS VL: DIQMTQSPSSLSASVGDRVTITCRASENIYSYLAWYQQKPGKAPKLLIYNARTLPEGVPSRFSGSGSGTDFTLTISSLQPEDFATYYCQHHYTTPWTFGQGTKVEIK , is EC50 less than 3 nM?
Reply | y
